Target: T1, cynomolgus monkey 4-1BB on CHO-K1 cells (cynomolgus monkey)
T1 chain: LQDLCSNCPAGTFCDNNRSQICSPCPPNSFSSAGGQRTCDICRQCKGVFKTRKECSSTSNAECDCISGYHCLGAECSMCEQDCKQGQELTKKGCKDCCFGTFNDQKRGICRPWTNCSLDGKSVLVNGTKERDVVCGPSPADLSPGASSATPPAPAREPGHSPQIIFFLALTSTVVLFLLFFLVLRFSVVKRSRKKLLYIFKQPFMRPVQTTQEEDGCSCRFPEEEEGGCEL
Test: FACS; FIG. 12F
pEC50: −log10 of the molar value.
REPORTED ENDPOINT: pEC50

1. Utomilumab (antibody, V domains shown) VH: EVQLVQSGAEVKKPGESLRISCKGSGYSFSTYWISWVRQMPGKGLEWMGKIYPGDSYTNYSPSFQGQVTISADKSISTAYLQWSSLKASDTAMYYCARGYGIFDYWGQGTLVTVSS VL: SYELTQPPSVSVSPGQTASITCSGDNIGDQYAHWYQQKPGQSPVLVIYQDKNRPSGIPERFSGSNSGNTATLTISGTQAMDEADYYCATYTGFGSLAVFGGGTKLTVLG
8.46
2. PR001840 (antibody, V domains shown) VH: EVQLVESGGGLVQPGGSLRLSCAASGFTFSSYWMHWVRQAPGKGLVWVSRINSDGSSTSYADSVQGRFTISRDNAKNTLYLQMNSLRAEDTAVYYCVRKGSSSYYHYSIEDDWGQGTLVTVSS
8.90
3. PR001837 (antibody, V domains shown) VH: EVQLLESGGGLVQPGGSLRLSCEASGFTFSSYAMSWVRQAPEKGLEWVSSISGSGGSTFYADSVKGRFTISRDNSKNTLYLQMNSLRAEDTAVYYCAKEGTTETDDYHYNMDVWGQGTTVTVSS
8.79

P: PR001838 (antibody, V domains shown) VH: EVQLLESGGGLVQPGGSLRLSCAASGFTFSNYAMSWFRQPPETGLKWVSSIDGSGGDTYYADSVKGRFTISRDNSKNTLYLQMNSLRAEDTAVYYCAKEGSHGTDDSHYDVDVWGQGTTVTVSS
Q: PR001842 (antibody, V domains shown) VH: EVQLLESGGGLVQPGGSLRLSCAASGFTFSSYAMSWGRQAPGKGLEWVSAISGSGGSTYYADSVKGRFTISRDNSKNTLYLHMNSLRAEDTAVYYCAKEKVATTGDYYYDMDVWGQGTTVTVSS
input: Lower value of pEC50 belongs to which: P or Q ? Identify your pick by its label.
output: Q
(Q: 8.64, P: 8.96)
